Value source: ChEMBL document CHEMBL4765326

test: Octanol-water partition coefficient, logP of compound incubated for 24 hrs under shaking condition; format: physicochemical
Reported logP at 24 h by item:
// return a plain number; no unit text

Known results for compounds:
CC1=C(I)C(C)=[N+]2C1=Cc1c(C)c(I)c(C)n1[B-]2(OCCc1cc[n+](C)cc1)OCCc1cc[n+](C)cc1 = -1.14
CC[N+](C)(CC)CCCO[B-]1(OCCC[N+](C)(CC)CC)n2c(C)c(I)c(C)c2C=C2C(C)=C(I)C(C)=[N+]21 = -0.93
CC1=CC(C)=[N+]2C1=Cc1c(C)cc(C)n1[B-]2(OCCC[N+](C)(C)C)OCCC[N+](C)(C)C.[I-].[I-] = -1.17
CC[N+](C)(CC)CCO[B-]1(OCC[N+](C)(CC)CC)n2c(C)c(I)c(C)c2C=C2C(C)=C(I)C(C)=[N+]21 = -1.36
CC1=C(I)C(C)=[N+]2C1=Cc1c(C)c(I)c(C)n1[B-]2(C#Cc1cc[n+](C)cc1)C#Cc1cc[n+](C)cc1 = -0.63

The reported logP at 24 h of the compound "CC1=C(I)C(C)=[N+]2C1=Cc1c(C)c(I)c(C)n1[B-]2(C#CC[N+](C)(C)C)C#CC[N+](C)(C)C.[I-].[I-]" was -1.21

According to the records, this compound "CC1=C(I)C(C)=[N+]2C1=Cc1c(C)c(I)c(C)n1[B-]2(OCC[N+](C)(C)C)OCC[N+](C)(C)C" displays logP at 24 h of -1.21

----------
test: Octanol-water partition coefficient, logP of compound incubated for 24 hrs under shaking condition; format: physicochemical
Below, each entry is listed with its recorded logP at 24 h.
Respond using a number only.

Illustrative cases are given below, each with its answer.
CC1=C(I)C(C)=[N+]2C1=Cc1c(C)c(I)c(C)n1[B-]2(Oc1cc[n+](C)cc1)Oc1cc[n+](C)cc1 = -0.93
CC1=C(I)C(C)=[N+]2C1=Cc1c(C)c(I)c(C)n1[B-]2(OCc1cc[n+](C)cc1)OCc1cc[n+](C)cc1 = -1.21
CC1=C(I)C(C)=[N+]2C1=Cc1c(C)c(I)c(C)n1[B-]2(OCCC[N+](C)(C)C)OCCC[N+](C)(C)C = -1.01
CC1=C(I)C(C)=[N+]2C1=Cc1c(C)c(I)c(C)n1[B-]2(OCCCc1cc[n+](C)cc1)OCCCc1cc[n+](C)cc1 = -0.91

"CC1=C(I)C(C)=[N+]2C1=Cc1c(C)c(I)c(C)n1[B-]2(OCCCCc1cc[n+](C)cc1)OCCCCc1cc[n+](C)cc1" has a reported logP at 24 h of -0.74

The reported logP at 24 h of the compound "CC1=C(I)C(C)=[N+]2C1=Cc1c(C)c(I)c(C)n1[B-]2(C#Cc1ccc[n+](C)c1)C#Cc1ccc[n+](C)c1" was -0.27

Value of measured logP at 24 h for the entry "CC1=CC(C)=[N+]2C1=Cc1c(C)cc(C)n1[B-]2(C#CC[N+](C)(C)C)C#CC[N+](C)(C)C.[I-].[I-]" : -1.97
